This listing pairs compounds with measured hERG current change (%, negative = inhibition) at 10uM.
measuredTarget: human ether-à-go-go-related gene (hERG) potassium channel (human, UniProt Q12809);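 further: peak tail current of the secondary pulse compared with the same well before compound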
Sequence (Q12809 whole entry, looked up): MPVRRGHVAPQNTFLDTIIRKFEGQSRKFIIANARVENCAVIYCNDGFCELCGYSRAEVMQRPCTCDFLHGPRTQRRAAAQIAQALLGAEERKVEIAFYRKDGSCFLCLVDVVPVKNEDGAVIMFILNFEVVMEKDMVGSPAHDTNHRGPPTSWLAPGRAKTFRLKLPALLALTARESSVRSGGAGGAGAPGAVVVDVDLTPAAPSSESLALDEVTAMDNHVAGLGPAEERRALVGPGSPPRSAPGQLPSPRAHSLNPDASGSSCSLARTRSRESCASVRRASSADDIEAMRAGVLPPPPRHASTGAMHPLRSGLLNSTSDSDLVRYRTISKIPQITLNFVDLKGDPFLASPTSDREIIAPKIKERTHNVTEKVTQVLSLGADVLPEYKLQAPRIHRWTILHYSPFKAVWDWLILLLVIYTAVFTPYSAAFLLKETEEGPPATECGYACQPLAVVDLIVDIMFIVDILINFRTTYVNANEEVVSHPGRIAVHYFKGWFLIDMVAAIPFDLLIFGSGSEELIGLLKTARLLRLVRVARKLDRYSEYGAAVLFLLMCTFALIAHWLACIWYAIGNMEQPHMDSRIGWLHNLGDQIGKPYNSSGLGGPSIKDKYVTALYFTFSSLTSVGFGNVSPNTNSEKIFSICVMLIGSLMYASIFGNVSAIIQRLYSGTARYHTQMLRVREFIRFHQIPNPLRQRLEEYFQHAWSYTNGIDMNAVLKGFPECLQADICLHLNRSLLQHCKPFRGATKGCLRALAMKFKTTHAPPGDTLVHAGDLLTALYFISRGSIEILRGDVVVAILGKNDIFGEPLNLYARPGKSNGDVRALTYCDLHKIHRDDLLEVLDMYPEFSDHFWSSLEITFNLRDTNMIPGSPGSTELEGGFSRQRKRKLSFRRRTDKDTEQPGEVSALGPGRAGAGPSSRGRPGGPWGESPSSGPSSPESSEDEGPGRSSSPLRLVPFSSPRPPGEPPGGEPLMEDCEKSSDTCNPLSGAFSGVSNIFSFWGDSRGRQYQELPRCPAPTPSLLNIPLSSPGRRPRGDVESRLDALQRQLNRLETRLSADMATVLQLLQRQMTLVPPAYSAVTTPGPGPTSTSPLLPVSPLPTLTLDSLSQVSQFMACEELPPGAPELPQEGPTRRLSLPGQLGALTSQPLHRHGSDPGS
experimentNotes: primary screen, population patch clamp on CHO cells stably expressing hERG; higher = less effect of the substance
In all, about 310,000 compounds went through this assay and about 14,000 (4.5%) showed an effect of 50% or more. The effect is printed as a negative number. This is one part of a sample in which strong results are shown more often than they occur.
Record the value in %, omitting the unit from your answer.

Worked examples, 4 compounds total:
1. O=C(Nc1ccccc1Oc1cccnc1)C1CCCN(C/C=C/c2ccccc2)C1 (stereo not drawn)	-76.9
2. COc1ccc(CN2CCN(C(C)C(=O)N3CCc4ccccc43)CC2)cc1OC (stereo not drawn)	-74
3. CC(=O)c1cc2c(C)cc(=O)oc2cc1O	1.77
4. CC1CCCN(CC(=O)Nc2ccc(S(=O)(=O)N3CCCCCC3)cc2)C1 (stereo not drawn)	-66.8

Ask: Query (compound): Cc1nc2ccc(S(=O)(=O)N(C)CC(=O)N3CCc4ccccc4C3)cc2s1 ; field requested: hERG current change (%, negative = inhibition) at 10uM
Reply: -53.2

Ask: Requested read-out: hERG current change (%, negative = inhibition) at 10uM. Entry: Cc1ccc(S(=O)(=O)N(C)CC(=O)N2CCCc3ccccc32)cc1
Reply: -16.1

Ask: Item under review: CCOc1ccc(C(=O)NC(C(=O)NCC(c2cccs2)N(C)C)C(C)C)cc1 (stereo not drawn) . Reported hERG current change (%, negative = inhibition) at 10uM?
Reply: -19.8

Ask: Can you look up the measured hERG current change (%, negative = inhibition) at 10uM of COc1ccc(OC)c(S(=O)(=O)Oc2ccc(N)c3ccccc23)c1 for me?
Reply: 7.83

Ask: Need hERG current change (%, negative = inhibition) at 10uM, item Cc1nc2ccc(S(=O)(=O)NCC(=O)N3CCc4ccccc4C3)cc2s1
Reply: 0.862

Ask: Looking for the measured hERG current change (%, negative = inhibition) at 10uM of CCN(CC)C(=O)C1CCCN(C/C=C/c2ccccc2)C1 (stereo not drawn) , can you help?
Reply: -40.8

Ask: What measured hERG current change (%, negative = inhibition) at 10uM goes with CCN(C1=NS(=O)(=O)c2ccccc21)N(CC)S(=O)(=O)c1ccc(C)cc1 ?
Reply: 19.8

Ask: Which hERG current change (%, negative = inhibition) at 10uM value belongs to O=C1N(CC(=O)N2CCc3ccccc32)CCN1Cc1ccc(Cl)cc1 ?
Reply: -11.8
